The measurements presented in this section are drawn from a melting point compilation (Tetko et al.; mined from patent text by program, amines drawn as free bases though some values may be those of a salt).

Entries and their melting point

Example cases with answers are listed next.
Tell me the measured melting point of `O=C(O)c1ccc2c(c1)S(=O)(=O)c1ccccc1NC2` , please.
304 to 306 °C

// returns reported melting point for input `COCCc1nc2c(N)nc3ccccc3c2n1CCOCCN(C)C(=O)N1CCOCC1`
122 °C

Fill in the blank: the reported melting point of `O=C=Nc1ccc2c(c1)C(=O)OC2=O` is ____.
80 to 82 °C

Which melting point value belongs to `COc1ccc(CNc2nc(N3CCC[C@H]3CO)cnc2C(=O)O)cc1Cl` ?
169 to 171 °C

Find the recorded melting point belonging to Cc1nn(C(C)C)cc1C(=O)NC(C#N)c1cccs1 (centres undefined) and report it.
140 to 142 °C

More entries:
Need melting point, item O=c1cc2c(nn1Cc1ccc(Cl)cc1)-c1ccccc1S(=O)CC2 (centres undefined)
207 to 209 °C

# lookup: melting point of `Fc1ccc(C(CCCN2CCC(c3nn(-c4ccccc4)c4cc(F)ccc34)CC2)c2ccc(F)cc2)cc1`
113 to 115 °C

Report melting point for CC1Cc2ccc(Cl)cc2C(c2ccc(N)cc2)=NN1C(=O)C(F)(F)F (centres undefined) please.
165 to 167 °C

Fill in: melting point of O=S(=O)(c1ccc(C(CC2CCOCC2)c2ccc(-c3nnc(CO)s3)[nH]2)cc1)C1CC1 (centres undefined) is ___
208 to 209 °C

----------
melting point reference

Reference set, count: 5
Find the recorded melting point belonging to Cc1cccn2c(C)c(-c3ccc4c(c3)NC(=O)C(C)O4)nc12 (stereo unspecified) and report it.
249 to 250 °C

Give its melting point value. Item: `CCOC(=O)c1nnc(-c2ccc(OCC)cc2)o1`
93 °C

Look up melting point: `O=C(Nc1ccc(NS(=O)(=O)c2ccc(Cl)c(Cl)c2)cc1)Nc1ccc([N+](=O)[O-])cc1`
207 to 209 °C

Endpoint output: melting point of `COc1cccc(CBr)c1CBr` . Value?
78 to 79 °C

Endpoint output: melting point of `CCOC(=O)C=C(C)C=CC=C(C)C=Cc1c(C)c(CC)c(OC)c(CC)c1C` . Value?
153 to 154 °C

Consider the additional compound presented here.
// query melting point value for entry `CCOC(=O)c1nnnn1Cc1ccccc1`
58 to 61 °C

----------
Reported melting point values for the following compounds.

Worked set:
Query: melting point; subject: `Cn1ncc2nn(-c3cc(C(F)(F)F)ccc3F)c(=O)cc21`
190 to 195 °C

What measured melting point goes with `Cc1cc(C2=NN=C(C=O)Cc3cc4c(cc32)OCO4)ccc1[N+](=O)[O-]` ?
188 to 191 °C

Using the record for O=C(Nc1ccccc1)C1(C=Cc2ccccc2)SC=CC1OC(F)F (stereo unspecified) , report its melting point.
80 to 82 °C

Returns the measured melting point for the input compound. Input: `O=C(NCc1ccccc1)c1ccnc(NC(=O)c2ccc(OC(F)(F)F)cc2)c1`
151 to 153 °C

Which value of melting point has been reported for COc1cc(C(=O)N2CCC(CCN3CCC(C(=O)c4nc5ccccc5n4Cc4ccc(C(=O)O)cc4)CC3)(c3ccccc3)C2)cc(OC)c1OC (stereo unspecified) in the records?
173 to 190 °C

Continuing:
Any idea what its melting point is? The compound is `CCCc1c(OCCCCCc2c(Cl)ccc(OC)c2OC)ccc(C(=O)O)c1O`
140 to 142 °C

----------
measurement_name: melting point (°C)
State just the number; it will be interpreted in °C.

// solved cases for melting point follow
Data request, read-out melting point, for `CC(=O)Nc1ccc2c3c(cccc13)S(=O)(=O)N2CCCN1CC=C(c2ccccc2)CC1`
178

# lookup: melting point of N#Cc1ccc(C(=O)CC2C=COc3ccccc32)cc1 (centres undefined)
111

Moving on to another compound below.
Form field: reported melting point of `Cc1cc2nc(Cl)c3cnccc3n2n1`
170

----------
# melting point annotations

Quick one: melting point for CS(=O)(=O)c1ccc(C(CC2CCCCC2)C(=O)O)cc1 (stereo not drawn) ?
139 to 143 °C

# lookup: melting point of `CCONC(=O)c1cc(-c2ncc(C(F)(F)F)cc2Cl)ccc1Cl`
162 to 163 °C

For the compound shown here, CC(CCNC(=O)c1cc2cc(Cl)ccc2[nH]1)n1ccnc1 (stereo not drawn) , give the reported melting point.
210 °C

# query: melting point of entry `CCCCCCCCCCCCCCc1ccc(N(CC(=O)O)CC(=O)O)cc1`
160 to 165 °C

Bench note: what melting point did CC1(C)SC2CC(=O)N2C1C#N (stereo not drawn) show?
73 to 75 °C

Continuing:
Entry `CCc1ccc(C(=O)Oc2ccc(C(=O)O)cc2)cc1C12CC3CC(CC(C3)C1)C2` has what melting point?
239 to 241 °C

I'd like to know its melting point. The compound in question is O=C1C2=C(CCCC2)C(Sc2ccccc2)N1c1ccc(Cl)cc1F (stereo not drawn)
86 to 87 °C

# melting point lookup, item C#Cc1cccc(Nc2ncnc3ccc(S(=O)(=O)n4ccc(C=CC(=O)NOC5CCCCO5)c4)cc23)c1 (stereo not drawn)
152 to 155 °C

----------
measurement_name: melting point

The cases that follow already have their melting point on record.
Entry `ClCCCOc1cc(Cl)c(OCCCCl)cc1Cl` : reported melting point = ?
162 °C

Any idea what melting point was measured for `CC(C)=Cc1ccc(/C=C/CCl)cc1` ?
48 to 50 °C

Dear colleague, I am looking for the recorded melting point of the following compound: `CSc1ccc2c3c(cccc13)C(=O)N2C(C)C`
70 to 71 °C

So what does the record say about melting point for `CC(C)(C)N(Cc1ccccc1)NC(=O)c1ccco1` ?
152 °C

Given the entry `CCCCCCCN(C)C(=O)Nc1ccc(F)cc1NC(=O)c1cc(C(C)(C)C)c(O)c(C(C)(C)C)c1` , report its measured melting point.
164 to 167 °C

Could you tell me which melting point is on file for `CC(C)(Oc1ccc(CCC(=O)c2ccc(-c3ccc(C(F)(F)F)cc3)s2)c(Cl)c1Cl)C(=O)O` ?
153 to 154 °C

Any idea what melting point was measured for `BrC12CC3CC(CC(C3)C1=C1C3CC4CC(C3)CC1C4)C2` ?
130 to 132 °C

Reported melting point, compound `COC(=O)c1cccc(OC(=O)C(=O)Oc2cccc(C(=O)OC)c2)c1` : ____
194 to 195 °C

Continuing:
Entry under review: CSc1ccc(C(=O)C(C#N)C(=O)C(C)(C)C)c(Cl)c1 (stereo not given) . Reported melting point?
97 to 99 °C

Form field: reported melting point of `C#CC[C@@H](NC(=O)OC(C)(C)C)c1nc2cc(Cl)ccc2c(=O)n1Nc1ccccc1`
155 to 157 °C

----------
Property: melting point; scope: individual molecules

What value of measured melting point is listed for COc1ccccc1CN[C@H]1CCCN(CC(=O)O)[C@H]1c1ccccc1 (relative stereo) ?
58 °C

# get_value(readout='melting point', item= `N#Cc1ccc(OCc2cccc(F)c2)cc1` )
104 to 105 °C

Query (molecule): `COc1ccc(-c2cnc3ccc(-c4nnc(SCc5cccc(C(F)(F)F)c5)o4)cn23)cc1` ; field requested: melting point
104 to 105 °C

So what's the measured melting point for this one? CCON=C(CC)C1=C(O)CC(c2cccc3sccc23)CC1=O (stereo not given)
76 °C

Query (molecule): CC1CC2=CC(=O)CCC2C2C(O)CC3(C)C(O)CCC3C12 (stereo not given) ; field requested: melting point
163 °C

Request the reported melting point associated with `C=CCOC(=O)C=CC(=O)NC(N)=O`
108 to 110 °C

Others:
Look up melting point for this molecule: `COc1ccc2[nH]c(SCc3ncnc(N4CCOCC4)c3C)nc2c1`
129 to 131 °C

Quick one: melting point of `COc1cccc(N2CCN(CCCO)CC2)c1` ?
87 to 89 °C

Returns the measured melting point for the input molecule. Input: `COc1ccc(S(=O)(=O)Nc2ccccc2Nc2ccccn2)cc1`
113 to 116 °C

Item under review: CCCn1c(=O)c2[nH]c(C(C)Cc3ccncc3)nc2n(CCC)c1=O (stereo not given) . Reported melting point?
215 to 217 °C

----------
Attribute: melting point

Answered examples (2):
Need melting point of `COc1ccc(N2C(=O)[C@H](O)[C@H]2c2ccco2)cc1` , thanks.
149 to 152 °C

Could you tell me which melting point is on file for COCC(C)Oc1cc(Oc2ccc(S(C)(=O)=O)nc2)cc2cc(C3=NCC(CC(N)=O)S3)[nH]c12 (centres undefined) ?
131 to 132 °C

Next:
GET /values?readout=melting point&item= `CCCCc1nc2c(c(=O)[nH]1)CN(C(C)=O)CC2`
106 to 113 °C

Field request: melting point | item: `Cn1ccc(C(=O)O)c(OCc2ccccc2)c1=O`
129 to 130 °C
